- systemUnderTest: human HSP90a (recombinant N-terminal nucleotide binding domain) (Homo sapiens (Human))
- protocolDescription: Competition fluorescence polarization binding assay with TSD-FP probe
- measurementConditions: method of Example A-1; incubation time not stated; read-out: Binding Affinity IC50
pIC50: −log10 of the molar value.
observationType: pIC50

molecule: COc1cccc(-c2cc(F)ccc2[C@H]2Cc3nc(N)nc(C)c3/C(=N/OCC(=O)N(C)CCO)N2)n1
observationType: pIC50
measured: 8.10
--
molecule: COc1cccc(-c2cc(F)ccc2[C@H]2Cc3nc(N)nc(C)c3/C(=N/OCC3CCC(O)CC3)N2)n1 (stereo partly shown)
observationType: pIC50
measured: 8.00
--
molecule: COc1cccc(-c2cc(F)ccc2[C@H]2Cc3nc(N)nc(C)c3/C(=N/O)N2)n1
observationType: pIC50
measured: 8.52
--
molecule: COc1cccc(-c2cc(F)ccc2[C@H]2Cc3nc(N)nc(C)c3/C(=N/OC[C@H](O)CO)N2)n1
observationType: pIC50
measured: 8.40
--
molecule: COc1cccc(-c2cc(F)ccc2[C@H]2Cc3nc(N)nc(C)c3/C(=N/OCCCCO)N2)n1
observationType: pIC50
measured: 8.22
--
molecule: COc1cccc(-c2cc(F)ccc2[C@H]2Cc3nc(N)nc(C)c3/C(=N/OCC(=O)N3CC[C@@H](F)C3)N2)n1
observationType: pIC50
measured: 8.40
--
molecule: COc1cccc(-c2cc(F)ccc2[C@H]2Cc3nc(N)nc(C)c3/C(=N/OC3C[C@@H](O)[C@@H](O)C3)N2)n1 (stereo partly shown)
observationType: pIC50
measured: 8.30
